Listed here: items and their measured IC50.
testedOn: factor Xa (Homo sapiens, UniProt P00742)
Sequence (P00742 235-488 limits assumed): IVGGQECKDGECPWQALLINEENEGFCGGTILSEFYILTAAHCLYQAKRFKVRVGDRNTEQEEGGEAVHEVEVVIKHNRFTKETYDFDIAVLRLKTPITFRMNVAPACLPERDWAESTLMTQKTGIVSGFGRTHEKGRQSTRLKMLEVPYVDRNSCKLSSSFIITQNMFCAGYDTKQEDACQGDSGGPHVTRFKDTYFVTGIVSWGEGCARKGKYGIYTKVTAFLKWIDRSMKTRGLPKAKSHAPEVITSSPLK
Sequence (P00742 41-179 partner limits assumed): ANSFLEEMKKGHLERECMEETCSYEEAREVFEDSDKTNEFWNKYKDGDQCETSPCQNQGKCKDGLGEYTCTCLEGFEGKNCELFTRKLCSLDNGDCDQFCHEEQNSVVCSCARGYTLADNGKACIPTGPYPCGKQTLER
methodSummary: Inhibition of factor Xa (FXa-IC50)
Type: biochemical
conditionInfo: Table 1, headed 'Affinity to receptors'; read-out: FXa-IC50
reportedProperty: IC50 (nM)

1) O=C(Nc1ccc(N2CCOCC2=O)cc1)[C@H]1CCCN1C(=O)c1ccc(Cl)s1	1800
2) O=C(Nc1ccc(N2CCOCC2=O)cc1)[C@H]1CCCN1C(=O)Nc1ccc(Cl)cc1	18
3) O=C(Nc1ccc(-n2ccccc2=O)cc1)[C@H]1C[C@@H](O)CN1C(=O)Nc1ccc(Cl)cn1	3.7

====

testedOn: factor Xa (Homo sapiens, UniProt P00742)
methodSummary: Inhibition of factor Xa (FXa-IC50)
Format: biochemical
conditionInfo: read-out: IC50(Xa)
pIC50: −log10 of the molar value.
Listed here: items and their measured pIC50.
reportedProperty: pIC50

1. O=C(Nc1ccc(N2CCOCC2=O)cc1)[C@H]1C[C@@H](OCC(F)(F)F)CN1C(=O)Nc1ccc(Cl)cc1	8.01
2. CCO[C@@H]1C[C@H](C(=O)Nc2ccc(-n3nc(C)sc3=N)cc2)N(C(=O)Nc2ccc(Cl)cc2)C1	8.32
3. CO[C@@H]1C[C@H](C(=O)Nc2ccc(-n3nc(C)sc3=N)cc2)N(C(=O)Nc2ccc(Cl)cc2)C1	8.21
4. Nc1ccc(O[C@H]2C[C@H](C(=O)Nc3ccc(N4CCOCC4=O)cc3)N(C(=O)Nc3ccc(Cl)cc3)C2)cc1	7.60
5. Cc1nn(-c2ccc(NC(=O)[C@H]3C[C@@H](OC(C)C)CN3C(=O)Nc3ccc(Cl)cc3)cc2)c(=N)s1	8.52

This collection of values is drawn from patent US20080003214A1.
